# Test system: SK-MEL-5 TRPM1 promoter luciferase reporter, 24 h
# measurement_notes: decrease of TRPM1 reporter luminescence in SK-MEL-5 – cell-based, dry powder samples, set 4, MITF inhibitor project, dose response (AID 624316)
The source made the active and inactive calls.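 Rule for the calls: active = compounds lowering reporter light with a fitted AC50 at or below twice their top valid dose; inconclusive = flat partial inhibition or an unreliable curve fit; inactive = the rest.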
Possible outcomes: active, inactive

# entry_smiles, cat
records = [
    ("C=CCNC1=C(N2CCN(CC)CC2)C(=O)c2ccccc2C1=O", "active"),
    ("CN1CCN(C2=C(NS(=O)(=O)c3cccs3)C(=O)c3ccccc3C2=O)CC1", "active"),
    ("COc1ccc(C2=C(NC(=O)c3ccc(OC)cc3-c3cccc(OC)c3)C(=O)c3ccccc3C2=O)cc1", "inactive"),
    ("COc1ccc(S(=O)(=O)N(C(C)=O)c2ccc(OC(C)=O)c3ccccc23)cc1[N+](=O)[O-]", "active"),
    ("O=C1C(NS(=O)(=O)c2ccc(Br)s2)=C(N2CCSCC2)C(=O)c2ccccc21", "active"),
]
